Ref: PubChem BioAssay

Assay: inhibitors of hydroxyurea-induced Chk1 phosphorylation, primary screen, imaging, HeLa, phospho-Chk1 nuclear intensity (AID 1187); also: test concentration not given here
Conditions: hydroxyurea-induced phospho-Chk1 immunofluorescence imaging, higher = more signal
Could you please classify the records by z-score using these ranges: bottom range: < -0.3; center range: ≥ -0.3 and < 0.07; top range: ≥ 0.07

Returns: class label. Input: CCCC[C@@H]1C[C@H]1[C@@H](NC(=O)c1ccco1)c1ccc(C(=O)OC)cc1
top range

Returns: class label. Input: CCOC(=O)[C@H]1C/C=C/C[C@H](C(=O)OCC)C(=O)O[C@H]2[C@@H](OC)O[C@H](CO)[C@@H](OC(=O)Nc3ccc(C#N)cc3)[C@@H]2OC1=O
bottom range

Returns: class label. Input: C=CCOC(=O)[C@@H]1[C@H]2C(=O)O[C@H](c3ccccc3)[C@H](c3ccccc3)N2[C@H](c2ccc(OCCOC(=O)[C@@H]3C[C@@H]4C(=O)N[C@@H](CCCCN(C)C)C(=O)N4[C@@H]3c3ccc(O)cc3)cc2)[C@@]12C(=O)Nc1ccc(I)cc12
top range

Returns: class label. Input: CN1C(=O)[C@]2(Cc3ccccc3)N=C(c3ccc(OCCCO)cc3)O[C@@H]2c2ccccc21
center range

Returns: class label. Input: O=C1O[C@@H](c2ccccc2)[C@@H](c2ccccc2)N2[C@@H](c3ccccc3OCCO)[C@]3(C(=O)Nc4ccc(C#CC5=CCCCC5)cc43)[C@@H](C(=O)Nc3nc4ccccc4s3)[C@H]12
center range

Returns: class label. Input: COc1cc2c(cc1O)C(C1CC1)N(Cc1cc3c(cc1Br)OCO3)CC2 (stereo unspecified)
top range

Returns: class label. Input: CC(C)(C)C(=O)N[C@@H](c1ccc(Cl)cc1)[C@]1(C)C[C@H]1C1CCCCC1
bottom range

Returns: class label. Input: COCCCNC(=O)[C@@]1(Cc2ccccc2N=[N+]=[N-])N=C(c2ccc(OCCCO)cc2)O[C@H]1c1ccccc1N=[N+]=[N-]
center range

Returns: class label. Input: C=CCN1C(=O)[C@]2(O[C@H](CCO)[C@@H]([Si](C)(C)c3ccc(OC)cc3)[C@@H]2C)c2cc(N3CCCCC3=O)ccc21
bottom range
